Tested on: Enterococcus faecium
protocol-notes: Compound was evaluated for inhibitory effect on growth of Streptococcus faecium ATCC 8043
Format: functional, organism-based
IC50 for assorted compounds

{"columns": ["compound", "result-units", "IC50"],
 "data": [
  ["Cc1c(CNc2ccc(C(=O)NC(CCC(=O)O)C(=O)O)cc2)cnc2nc(N)nc(O)c12 (centres undefined)", "ng/mL", 380],
  ["CN(Cc1cnc2nc(N)nc(N)c2n1)c1ccc(C(=O)N[C@@H](CCC(=O)O)C(=O)O)cc1 [METHOTREXATE]", "ng/mL", 0.26],
  ["Cc1c(CN(C)c2ccc(C(=O)NC(CCC(=O)O)C(=O)O)cc2)cnc2nc(N)nc(O)c12 (centres undefined)", "ng/mL", 30],
  ["Nc1nc(O)c2cc(CNc3ccc(C(=O)NC(CCC(=O)O)C(=O)O)cc3)cnc2n1 (centres undefined)", "ng/mL", 0.09]
]}
